Test: activity coefficient (dimensionless); of the first substance listed, at infinite dilution; xn = mol fraction of the nth substance listed
Details: 368.15 K; 101 kPa; Liquid; Chromatography; x1 = 0
Exercise: for every item that follows, state its recorded activity coefficient.
One number for each entry.

Solved entries (count: 2):
CCO [ethanol] + CC[S+](CC)CC.O=S(=O)([N-]S(=O)(=O)C(F)(F)F)C(F)(F)F = 1.18
CCCCC [pentane] + CC[S+](CC)CC.O=S(=O)([N-]S(=O)(=O)C(F)(F)F)C(F)(F)F = 12.7

Pending compound:
Consider the compound shown here: Cc1ccccc1 [toluene] + CC[S+](CC)CC.O=S(=O)([N-]S(=O)(=O)C(F)(F)F)C(F)(F)F What is its recorded activity coefficient?
1.66
